Experiment: Murine plasma protein binding
Assay type: in vitro ADME, mouse
Conditions: mouse plasma
readout_type: fraction unbound

### Prompt Tell me the measured fraction unbound of `Cc1nc(Nc2ncc(C(=O)Nc3c(CF)csc3Cl)s2)cc(N2CCN(C)CC2)n1` , please.
### Response < 0.05

###

Experiment: Full pharmacokinetic study with oral administration in mice
Format: in vivo
Conditions: mouse, plasma; mice, 30 mg/kg po, Free
readout_type: AUC(0-t)
Give the number first and the unit second.

### Prompt Tell me the measured AUC(0-t) of `Cc1nc(Nc2ncc(C(=O)Nc3c(CF)csc3Cl)s2)cc(N2CCN(C)CC2)n1` , please.
### Response 0.239 µM·h

###

Assay: Human hepatocyte stability
Format: in vitro ADME
Details: human hepatocytes
readout_type: half-life

### Prompt Tell me the measured half-life of `Cc1nc(Nc2ncc(C(=O)Nc3c(CF)csc3Cl)s2)cc(N2CCN(C)CC2)n1` , please.
### Response ~25 min

###

Assay: Human liver microsomal stability
Format: in vitro ADME
Settings: human liver microsomes
readout_type: half-life

### Prompt Tell me the measured half-life of `Cc1nc(Nc2ncc(C(=O)Nc3c(CF)csc3Cl)s2)cc(N2CCN(C)CC2)n1` , please.
### Response ~10 min

###

Experiment: Mouse hepatocyte stability
Format: in vitro ADME
Conditions: mouse hepatocytes
readout_type: half-life

### Prompt Tell me the measured half-life of `Cc1nc(Nc2ncc(C(=O)Nc3c(CF)csc3Cl)s2)cc(N2CCN(C)CC2)n1` , please.
### Response ~1.08 h

###

Molecular target: SIK3 (Homo sapiens, UniProt Q9Y2K2)
Construct: purchased ProQuinase, Freiburg, Germany
Sequence (Q9Y2K2 whole entry): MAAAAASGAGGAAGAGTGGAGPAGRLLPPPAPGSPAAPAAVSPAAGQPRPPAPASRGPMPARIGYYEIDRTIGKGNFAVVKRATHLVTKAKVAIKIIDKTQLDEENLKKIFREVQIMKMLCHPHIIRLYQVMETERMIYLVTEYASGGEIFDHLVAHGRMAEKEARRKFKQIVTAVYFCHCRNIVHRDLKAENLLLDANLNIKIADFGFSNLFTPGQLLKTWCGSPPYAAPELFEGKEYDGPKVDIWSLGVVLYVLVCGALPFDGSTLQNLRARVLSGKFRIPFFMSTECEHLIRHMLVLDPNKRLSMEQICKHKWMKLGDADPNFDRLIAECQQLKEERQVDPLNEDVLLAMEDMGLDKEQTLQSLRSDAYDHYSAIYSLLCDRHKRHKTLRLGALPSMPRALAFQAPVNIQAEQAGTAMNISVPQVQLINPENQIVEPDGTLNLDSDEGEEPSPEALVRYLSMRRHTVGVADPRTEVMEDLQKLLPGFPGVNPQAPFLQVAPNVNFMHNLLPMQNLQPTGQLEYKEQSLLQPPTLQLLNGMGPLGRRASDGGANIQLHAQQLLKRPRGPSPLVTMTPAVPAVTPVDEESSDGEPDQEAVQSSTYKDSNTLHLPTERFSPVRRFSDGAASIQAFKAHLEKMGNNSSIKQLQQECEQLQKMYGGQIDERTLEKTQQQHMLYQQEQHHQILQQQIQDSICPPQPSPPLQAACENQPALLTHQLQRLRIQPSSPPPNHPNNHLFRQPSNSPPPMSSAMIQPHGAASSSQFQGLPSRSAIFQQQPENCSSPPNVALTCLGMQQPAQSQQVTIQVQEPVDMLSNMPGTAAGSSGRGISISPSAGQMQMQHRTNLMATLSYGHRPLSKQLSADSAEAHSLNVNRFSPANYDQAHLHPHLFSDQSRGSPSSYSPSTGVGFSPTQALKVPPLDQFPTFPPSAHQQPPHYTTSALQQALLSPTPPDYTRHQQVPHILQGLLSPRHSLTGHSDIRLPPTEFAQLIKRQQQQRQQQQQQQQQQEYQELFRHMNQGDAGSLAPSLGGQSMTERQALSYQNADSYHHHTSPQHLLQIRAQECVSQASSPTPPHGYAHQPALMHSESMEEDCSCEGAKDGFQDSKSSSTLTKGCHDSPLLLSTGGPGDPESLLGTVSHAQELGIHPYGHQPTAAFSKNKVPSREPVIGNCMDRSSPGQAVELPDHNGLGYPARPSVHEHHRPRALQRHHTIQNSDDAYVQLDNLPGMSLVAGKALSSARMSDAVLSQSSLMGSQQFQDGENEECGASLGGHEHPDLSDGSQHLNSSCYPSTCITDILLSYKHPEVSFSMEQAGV
Assay: Radiometric protein kinase assay (33PanQinase Activity Assay), SIK3
Format: biochemical
Details: ATP 1.0 μM
readout_type: IC50

### Prompt Tell me the measured IC50 of Cc1nc(Nc2ncc(C(=O)Nc3c(C)csc3Cl)s2)cc(N2CCN(C)CC2)n1 [Compound D9] , please.
### Response ~60 nM

###

System: P-gp (MDR1)
Assay: Permeability and efflux in MDCK-MDR1 cells
Format: in vitro ADME
Conditions: dog
readout_type: Papp A→B (×10⁻⁶ cm/s)
Your answer is read as ×10⁻⁶ cm/s, so omit the unit and give the number.

### Prompt Enter reported Papp A→B observed with P-gp (MDR1) for `Cc1nc(Nc2ncc(C(=O)Nc3c(CF)csc3Cl)s2)cc(N2CCN(C)CC2)n1`
### Response 5

###

Assay: Mouse liver microsomal stability
Assay type: in vitro ADME
Conditions: mouse liver microsomes; read-out: Mouse liver microsomal stability: Intrinsic clearance
readout_type: microsomal CLint

### Prompt Tell me the measured microsomal CLint of `Cc1nc(Nc2ncc(C(=O)Nc3c(CF)csc3Cl)s2)cc(N2CCN(C)CC2)n1` , please.
### Response 130 to 150 µL/min/mg

###

Assay: Human plasma-protein binding
Type: in vitro ADME
Settings: human, plasma, read-out: human plasma protein binding
readout_type: fraction unbound

### Prompt Tell me the measured fraction unbound of `Cc1nc(Nc2ncc(C(=O)Nc3c(CF)csc3Cl)s2)cc(N2CCN(C)CC2)n1` , please.
### Response < 0.05

###

Tested on: HDAC4 phosphorylation
Experiment: TNF-induced phosphorylation of HDAC4
Format: cell-based
Details: TNF-induced
readout_type: Inhibition of HDAC4 phosphorylation

# molecule, experimental_system, endpoint_result
records = [
    ("Cc1nc(Nc2ncc(C(=O)Nc3c(C)cccc3Cl)s2)cc(N2CCN(CCO)CC2)n1 [Compound A8]", "HDAC4 phosphorylation", "++"),
    ("Cc1nc(Nc2ncc(C(=O)Nc3c(C)csc3Cl)s2)cc(N2CCN(CCO)CC2)n1 [Compound C7]", "HDAC4 phosphorylation", "+"),
    ("Cc1nc(Nc2ncc(C(=O)Nc3c(C)csc3Cl)s2)cc(N2CCN(C)CC2)n1 [Compound D9]", "HDAC4 phosphorylation", "+"),
    ("Cc1nc(Nc2ncc(C(=O)Nc3c(CF)csc3Cl)s2)cc(N2CCN(C)CC2)n1 [Compound E9]", "HDAC4 phosphorylation", "++"),
]
